// data source = paper PMC3776780

pKi overview
Molecular target: ZAP70 (Homo sapiens, UniProt P43403)
Sequence (P43403 1-619): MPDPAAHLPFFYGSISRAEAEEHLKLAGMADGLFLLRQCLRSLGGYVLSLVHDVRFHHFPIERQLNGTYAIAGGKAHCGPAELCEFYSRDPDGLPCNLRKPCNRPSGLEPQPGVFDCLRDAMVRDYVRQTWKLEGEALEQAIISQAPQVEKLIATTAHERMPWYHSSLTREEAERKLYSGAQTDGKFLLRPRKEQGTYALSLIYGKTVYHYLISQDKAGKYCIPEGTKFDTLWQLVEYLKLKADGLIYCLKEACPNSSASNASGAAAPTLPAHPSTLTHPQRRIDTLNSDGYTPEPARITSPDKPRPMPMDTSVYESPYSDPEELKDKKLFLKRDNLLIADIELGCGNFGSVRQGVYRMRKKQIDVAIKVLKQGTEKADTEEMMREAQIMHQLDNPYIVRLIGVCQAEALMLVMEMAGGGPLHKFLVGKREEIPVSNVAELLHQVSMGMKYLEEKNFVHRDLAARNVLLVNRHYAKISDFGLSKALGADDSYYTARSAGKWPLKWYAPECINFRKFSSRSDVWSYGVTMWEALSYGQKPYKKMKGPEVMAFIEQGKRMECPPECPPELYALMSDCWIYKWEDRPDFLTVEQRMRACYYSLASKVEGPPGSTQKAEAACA
pKi: −log10 of the molar value.
reported_metric: pKi

INSERT INTO results (chemical_string, result) VALUES
  ('Fc1ccc(-c2noc(CN3CCCCC3)c2-c2ccnc(NC3CCCCC3)n2)cc1', '< 6.00'),
  ('OC1CCN(Cc2onc(-c3ccc(F)cc3)c2-c2ccnc(NC3CCCCC3)n2)CC1', '< 6.00'),
  ('OC[C@@H]1CCCN1Cc1onc(-c2ccc(F)cc2)c1-c1ccnc(NC2CCCCC2)n1', '< 6.00');
